Reference for the values: patent US20250262222A1

Test system: pERK1/2(THR202/TYR204) level in AsPC-1 cell line
Test Details: KRAS G12D pERK assay
Format: cell-based
Measurement Conditions: Homo sapiens, ASPC1, 2 h, AsPC-1 cells, 2 h compound treatment, HTRF
Measured Attribute: log10 IC50 (log10 of the value in nM)
Would you kindly interpret these values as log10 of IC50 expressed in nM?

Entry Cc1cc(N)cc(-c2nc3c4c(nc(OCC56COC(C5)C6)nc4c2F)N2C[C@H]4CC[C@H](N4)[C@H]2CCO3)c1C(F)(F)F , tested on pERK1/2(THR202/TYR204) level in AsPC-1 cell line, has a reported log10 IC50 of 2.31

Next molecule, log10 IC50 to be filled in.
Entry CN1C(=O)OC2(C)CC1(COc1nc3c4c(nc(-c5cc(N)cc(Cl)c5C(F)(F)F)c(F)c4n1)OCC[C@@H]1[C@@H]4CC[C@H](CN31)N4)C2 , tested on pERK1/2(THR202/TYR204) level in AsPC-1 cell line, has a reported log10 IC50 of 3.29

* * *

Test system: pERK1/2(THR202/TYR204) level in AsPC-1 cell line
Test Details: KRAS G12D pERK assay
Assay type: cell-based
Measurement Conditions: Homo sapiens, ASPC1, 2 h, AsPC-1 cells, 2 h compound treatment, HTRF
pIC50: −log10 of the molar value.
# cutoff 7 applies to pIC50; >= gives t, < gives f

Worked set:
Query :: Decide: pIC50 of C#Cc1c(F)ccc2cc(O)cc(-c3nc4c5c(nc(OC[C@@]67CCCN6C[C@H](F)C7)nc5c3F)N3CC5CCC(N5)C3CO4)c12 (stereo partly drawn) >= 7?
Result :: t

Query :: Decide: pIC50 of Nc1cc(Cl)c(C(F)(F)F)c(-c2nc3c4c(nc(OCC56CCC(COC5)C6)nc4c2F)N2C[C@H]4CC[C@H](N4)[C@H]2CCO3)c1 >= 7?
Result :: f

Query :: Decide: pIC50 of Cc1cc(N)cc(-c2nc3c4c(nc(OCC56CCC(C)(C5)OC6)nc4c2F)N2C[C@H]4CC[C@H](N4)[C@H]2CCO3)c1C(F)(F)F >= 7?
Result :: f

Query :: Decide: pIC50 of COC1(COc2nc3c4c(nc(-c5cc(N)cc(Cl)c5C(F)(F)F)c(F)c4n2)OCC[C@@H]2[C@@H]4CC[C@H](CN32)N4)COC1 >= 7?
Result :: f

New cases:
Query :: Decide: pIC50 of Nc1cc(Cl)c(C(F)(F)F)c(-c2nc3c4c(nc(OCC56COCC(C5)C6)nc4c2F)N2C[C@H]4CC[C@H](N4)[C@H]2CCO3)c1 >= 7?
Result :: f

Query :: Decide: pIC50 of COCC1(COc2nc3c4c(nc(-c5cc(N)cc(Cl)c5C(F)(F)F)c(F)c4n2)OCC[C@@H]2[C@@H]4CC[C@H](CN32)N4)COC1 >= 7?
Result :: f

Query :: Decide: pIC50 of Nc1cc(Cl)c(C(F)(F)F)c(-c2nc3c4c(nc(OCC56CCC(CC5)OC6)nc4c2F)N2C[C@H]4CC[C@H](N4)[C@H]2CCO3)c1 >= 7?
Result :: f

Query :: Decide: pIC50 of Nc1cc(Cl)c(C(F)(F)F)c(-c2nc3c4c(nc(OC[C@@]56CCCN5C[C@H](F)C6)nc4c2F)N2C[C@H]4CC[C@H](N4)[C@H]2CO3)c1 >= 7?
Result :: t

* * *

System: pERK1/2(THR202/TYR204) level in AsPC-1 cell line
Test Details: KRAS G12D pERK assay
Assay type: cell-based
Measurement Conditions: Homo sapiens, ASPC1, 2 h, AsPC-1 cells, 2 h compound treatment, HTRF
Measured Attribute: log10 of IC50 (log10 of the value in nM)
Would you kindly interpret these values as log10 of IC50 expressed in nM?

log10 of IC50 reading for CCOC(=O)N1CC(C)(COc2nc3c4c(nc(-c5cc(N)cc(Cl)c5C(F)(F)F)c(F)c4n2)OCC[C@@H]2[C@@H]4CC[C@H](CN32)N4)C1 [Example 33] : 2.46

log10 of IC50 reading for Nc1cc(Cl)c(C(F)(F)F)c(-c2nc3c4c(nc(OCC56CCC(C5)OC6)nc4c2F)N2C[C@H]4CC[C@H](N4)[C@H]2CCO3)c1 [Example 41] : 2.05

log10 of IC50 reading for Cc1cc(N)cc(-c2nc3c4c(nc(OCC56COC(C(F)F)(C5)C6)nc4c2F)N2C[C@H]4CC[C@H](N4)[C@H]2CCO3)c1C(F)(F)F [Example 29] : 1.96

log10 of IC50 reading for Oc1cc(Cl)c(C2CC2)c(-c2nc3c4c(nc(OCC56COC(C5)C6)nc4c2F)N2C[C@H]4CC[C@H](N4)[C@H]2CCO3)c1 [Example 38] : 3.27

log10 of IC50 reading for Nc1cc(Cl)c(C(F)(F)F)c(-c2nc3c4c(nc(OC[C@@]56CCCN5C[C@H](F)C6)nc4c2F)N2CC4CCC(N4)C2CO3)c1 (stereo partly drawn) [Example 10] : 1.76

New cases:
log10 of IC50 reading for CN1C(=O)OC2CC1(COc1nc3c4c(nc(-c5cc(N)cc(Cl)c5C(F)(F)F)c(F)c4n1)OCC[C@@H]1[C@@H]4CC[C@H](CN31)N4)C2 [Example 46] : 3.69

* * *

Tested on: pERK1/2(THR202/TYR204) level in SW620 cell line
Test Details: KRAS G12V pERK assay
Assay type: cell-based
Measurement Conditions: Homo sapiens, SW-620; SW620 cells, 2 hrs compound treatment, HTRF
Measured Attribute: IC50 (nM)
Report the value in nM with no unit label.

Solved entries (count: 4):
IC50 reading for C#Cc1c(F)ccc2cc(O)cc(-c3nc4c5c(nc(OC[C@@]67CCCN6C[C@H](F)C7)nc5c3F)N3CCOCCC3CO4)c12 (stereo partly drawn) [Example 22] : 13

IC50 reading for C#Cc1c(F)ccc2cc(O)cc(-c3nc4c5c(nc(OC[C@@]67CCCN6C[C@H](F)C7)nc5c3F)N3CCOC[C@H]3CO4)c12 [Example 4] : 6.7

IC50 reading for N#Cc1c(N)sc2c(F)ccc(-c3cc4c5c(nc(OC[C@@]67CCCN6C[C@H](F)C7)nc5c3F)N3CCOC[C@H]3CO4)c12 [Example 1] : 161

IC50 reading for Nc1cc(Cl)c(C(F)(F)F)c(-c2nc3c4c(nc(OC[C@@]56CCCN5C[C@H](F)C6)nc4c2F)N2CCOC[C@@H]2CCO3)c1 [Example 16] : 24

New cases:
IC50 reading for C#Cc1c(F)ccc2cc(O)cc(-c3cc4c5c(nc(OC[C@@]67CCCN6C[C@H](F)C7)nc5c3F)N3CCOC[C@H]3CO4)c12 [Example 2] : 178

IC50 reading for Nc1cc(Cl)c(C(F)(F)F)c(-c2nc3c4c(nc(OC[C@@]56CCCN5C[C@H](F)C6)nc4c2F)N2CCOCCC2CO3)c1 (stereo partly drawn) [Example 21] : 74

IC50 reading for N#Cc1c(N)sc2c(F)ccc(-c3c(Cl)c4c5c(nc(OC[C@@]67CCCN6C[C@H](F)C7)nc5c3F)N3C5CCC3(COC5)CO4)c12 (stereo partly drawn) [Example 15] : 83

IC50 reading for Oc1cc(Cl)c(C2CC2)c(-c2nc3c4c(nc(OC[C@@]56CCCN5C[C@H](F)C6)nc4c2F)N2CCOC[C@H]2CO3)c1 [Example 6] : 118

IC50 reading for N#Cc1c(N)sc2c(F)ccc(-c3c(Cl)c4c5c(nc(OC[C@@]67CCCN6C[C@H](F)C7)nc5c3F)N3CCOC[C@H]3CO4)c12 (single isomer, unassigned) [Example 14-Isomer 2] : 33

IC50 reading for C#Cc1c(F)ccc2cc(O)cc(-c3nc4c5c(nc(OC[C@@H]6C[C@@H](F)CN6C)nc5c3F)N3CCOC[C@H]3CO4)c12 [Example 7] : 72

IC50 reading for C#Cc1c(F)ccc2cc(O)cc(-c3nc4c5c(nc(OCC6(CN7CCOCC7)CC6)nc5c3F)N3CCOC[C@H]3CO4)c12 [Example 8] : 43

IC50 reading for N#Cc1c(N)sc2c(F)ccc(-c3c(Cl)c4c5c(nc(OC[C@@]67CCCN6C[C@H](F)C7)nc5c3F)N3CCOC[C@@H]3CCO4)c12 [Example 18] : 30

IC50 reading for Nc1cc(Cl)c(C(F)(F)F)c(-c2nc3c4c(nc(OC[C@@]56CCCN5C[C@H](F)C6)nc4c2F)N2CCOC[C@H]2CO3)c1 [Example 3] : 133

IC50 reading for CCc1c(F)ccc2cc(O)cc(-c3nc4c5c(nc(OC[C@@]67CCCN6C[C@H](F)C7)nc5c3F)N3CCOC[C@H]3CO4)c12 [Example 5] : 22

IC50 reading for C#Cc1c(F)ccc2cc(O)cc(-c3nc4c5c(nc(OC[C@@]67CCCN6C[C@H](F)C7)nc5c3F)N3CCCOC[C@H]3CO4)c12 [Example 20] : 1.3
